- assayedSystem: Butyrylcholinesterase (Rattus norvegicus, UniProt Q9JKC1)
- Sequence (Q9JKC1 whole entry): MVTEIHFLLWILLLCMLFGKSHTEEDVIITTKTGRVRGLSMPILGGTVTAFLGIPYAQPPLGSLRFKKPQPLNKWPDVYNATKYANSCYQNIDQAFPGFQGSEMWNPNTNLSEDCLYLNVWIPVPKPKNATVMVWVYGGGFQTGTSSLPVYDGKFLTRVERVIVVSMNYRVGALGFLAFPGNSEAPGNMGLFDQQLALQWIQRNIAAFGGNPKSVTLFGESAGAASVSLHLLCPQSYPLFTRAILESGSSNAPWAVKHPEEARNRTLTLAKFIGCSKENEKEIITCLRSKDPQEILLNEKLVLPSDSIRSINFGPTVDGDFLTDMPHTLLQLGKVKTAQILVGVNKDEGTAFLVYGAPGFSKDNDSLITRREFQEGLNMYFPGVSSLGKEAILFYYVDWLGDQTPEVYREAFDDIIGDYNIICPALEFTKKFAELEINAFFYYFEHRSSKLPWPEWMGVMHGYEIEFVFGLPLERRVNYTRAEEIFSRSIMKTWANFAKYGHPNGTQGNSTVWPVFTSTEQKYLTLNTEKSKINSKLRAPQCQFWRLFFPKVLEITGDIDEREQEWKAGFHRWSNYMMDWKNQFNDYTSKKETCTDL
- assayRemarks: Inhibition of rat serum BuChE by Ellman's method
# Lookup of reported IC50 keyed by entry
Expressed in µM, but write only the number.

CCN(CCCCOc1ccc(C(=O)/C=C/c2ccc(N(C)C)cc2)c(O)c1)Cc1ccccc1N(C)C = 236
CCN(CCCCOc1ccc(C(=O)/C=C/c2ccc(N(C)C)cc2)c(O)c1)Cc1ccccc1 = 202
CCN(CCCOc1ccc(C(=O)/C=C/c2ccc(N(C)C)cc2)c(O)c1)Cc1ccccc1N(C)C = 339

Exercise: Can you look up the measured IC50 of CCN(CCCCCCOc1ccc(C(=O)/C=C/c2ccc(N(C)C)cc2)c(O)c1)Cc1ccccc1N(C)C for me?
Solution: 422

* * *

- assayedSystem: Amyloid-beta precursor protein (Homo sapiens, UniProt P05067)
- Sequence (P05067 whole entry): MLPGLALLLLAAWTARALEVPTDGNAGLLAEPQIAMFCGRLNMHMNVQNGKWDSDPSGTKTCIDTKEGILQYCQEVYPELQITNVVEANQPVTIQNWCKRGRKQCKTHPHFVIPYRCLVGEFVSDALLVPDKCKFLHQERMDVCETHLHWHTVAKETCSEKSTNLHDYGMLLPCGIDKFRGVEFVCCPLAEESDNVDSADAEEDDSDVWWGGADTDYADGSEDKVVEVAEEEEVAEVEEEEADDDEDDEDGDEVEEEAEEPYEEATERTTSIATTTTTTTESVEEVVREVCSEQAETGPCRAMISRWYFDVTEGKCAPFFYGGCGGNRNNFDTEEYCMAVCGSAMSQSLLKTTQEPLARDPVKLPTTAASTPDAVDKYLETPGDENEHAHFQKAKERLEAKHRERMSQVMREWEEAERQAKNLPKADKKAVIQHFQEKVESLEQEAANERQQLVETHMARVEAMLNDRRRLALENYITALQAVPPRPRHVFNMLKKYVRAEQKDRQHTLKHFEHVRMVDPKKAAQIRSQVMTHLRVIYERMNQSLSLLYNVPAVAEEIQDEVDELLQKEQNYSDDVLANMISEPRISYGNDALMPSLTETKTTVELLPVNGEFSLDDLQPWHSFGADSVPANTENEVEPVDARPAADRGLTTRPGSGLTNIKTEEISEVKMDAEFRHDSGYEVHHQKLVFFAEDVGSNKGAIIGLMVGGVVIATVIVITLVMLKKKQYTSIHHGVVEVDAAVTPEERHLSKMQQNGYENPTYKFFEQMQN
- assayRemarks: Disaggregation of self-induced amyloid beta (1 to 42) (unknown origin) at 25 uM measured by Thioflavin T based fluorometric assay relative to control
Reported Activity values follow for various compounds
Write the number in % without appending the unit.

CCN(CCCOc1ccc(C(=O)/C=C/c2ccc(N(C)C)cc2)c(O)c1)Cc1ccccc1N(C)C = 96.6

Exercise: Notebook entry, Amyloid-beta precursor protein (Homo sapiens, UniProt P05067) assay: Activity of CCN(CCCCCCOc1ccc(C(=O)/C=C/c2ccc(N(C)C)cc2)c(O)c1)Cc1ccccc1 = ?
Solution: 84.4

Exercise: // map CCN(CCCCOc1ccc(C(=O)/C=C/c2ccc(N(C)C)cc2)c(O)c1)Cc1ccc(N(C)C)cc1 to recorded Activity (system: Amyloid-beta precursor protein (Homo sapiens, UniProt P05067))
Solution: 91.6

Exercise: Look up Activity with Amyloid-beta precursor protein (Homo sapiens, UniProt P05067) for this compound: CCN(CCCCOc1ccc(C(=O)/C=C/c2ccc(N(C)C)cc2)c(O)c1)Cc1ccccc1OC
Solution: 99.7

Exercise: Query Activity on Amyloid-beta precursor protein (Homo sapiens, UniProt P05067) for CCN(CCCOc1ccc(C(=O)/C=C/c2ccc(N(C)C)cc2)c(O)c1)Cc1ccccc1
Solution: 97.5

* * *

- assayedSystem: UniProt P21397
- Sequence (P21397 whole entry): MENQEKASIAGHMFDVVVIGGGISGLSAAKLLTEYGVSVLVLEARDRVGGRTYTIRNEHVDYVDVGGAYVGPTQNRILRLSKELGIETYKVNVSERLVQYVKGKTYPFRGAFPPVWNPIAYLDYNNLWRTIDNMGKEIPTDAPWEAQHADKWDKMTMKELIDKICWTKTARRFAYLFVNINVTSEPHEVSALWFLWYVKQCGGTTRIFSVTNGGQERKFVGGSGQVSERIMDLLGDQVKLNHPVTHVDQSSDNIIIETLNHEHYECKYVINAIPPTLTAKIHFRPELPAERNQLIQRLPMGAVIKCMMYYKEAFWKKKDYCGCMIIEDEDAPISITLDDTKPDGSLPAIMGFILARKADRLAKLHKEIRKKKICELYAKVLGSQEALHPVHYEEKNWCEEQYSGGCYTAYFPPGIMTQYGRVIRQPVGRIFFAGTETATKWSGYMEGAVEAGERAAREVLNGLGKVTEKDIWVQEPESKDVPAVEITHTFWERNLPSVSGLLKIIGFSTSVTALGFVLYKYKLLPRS
- assayRemarks: Inhibition of human recombinant MAO-A by multimode plate reader assay
pIC50 values by entry
Schema: pIC50 number; meaning minus log10 of the concentration expressed in molar units.

CCN(CC)CCCOc1ccc(C(=O)/C=C/c2ccc(N(C)C)cc2)c(O)c1 = 4.33
CCN(CCCCCCOc1ccc(C(=O)/C=C/c2ccc(N(C)C)cc2)c(O)c1)Cc1ccccc1OC = 4.27
COc1ccc(C(=O)/C=C/c2ccc(N(C)C)cc2)c(O)c1 = 5.12
CCN(CCCCOc1ccc(/C=C/C(=O)c2ccc(N(C)C)cc2O)cc1)Cc1ccccc1OC = 5.04
CCN(CCCCOc1ccc(/C=C/C(=O)c2ccc(N(C)C)cc2O)cc1)Cc1ccccc1N(C)C = 4.91

Exercise: Can you look up the measured pIC50 of CCN(CCCOc1ccc(C(=O)/C=C/c2ccc(N(C)C)cc2)c(O)c1)Cc1ccccc1 for me?
Solution: 4.08

Exercise: What does the data say about its pIC50? Entry: CCN(CCCCOc1ccc(C(=O)/C=C/c2ccc(N(C)C)cc2)c(O)c1)Cc1ccc(N(C)C)cc1
Solution: 4.76

Exercise: Quick one: pIC50 of CCN(CCCOc1ccc(C(=O)/C=C/c2ccc(N(C)C)cc2)c(O)c1)Cc1ccccc1N(C)C ?
Solution: 4.63

Exercise: Could you tell me which pIC50 is on file for CCN(CCCOc1ccc(C(=O)/C=C/c2ccc(N(C)C)cc2)c(O)c1)Cc1ccc(N(C)C)cc1 ?
Solution: 4.24
